# Tested on: Wolbachia pipientis
# method: Anti-Wolbachia Cell-Based Screen
# Format: functional
# Design: scale not given: in the data most compounds retested in dose-response had high values
# measurementConditions: 5 µM
The whole screen tested about 48,000 compounds, of which about 13,000 (27%) showed an effect of 50% or more. The list shows a part of the results.
The reader will find reported Percent Effect values listed item by item below.
State just the number; it will be interpreted in %.

State its Percent Effect: CC(=O)N[C@@H]1C[C@H](Cc2ccccc2)O[C@H](c2ccc(C(=O)O)cc2)C1
-2.466

Determine from records and report Percent Effect for Cc1ccc(CN2CCCC3(CCCC(=O)N3)C2)s1.O=C(O)C(F)(F)F (stereo not given)
-10.23

Return Percent Effect for the following molecule: COCCN1C[C@@H]2CN(Cc3ccc(C)s3)CCC[C@]2(C(=O)O)C1.O=C(O)C(F)(F)F.O=C(O)C(F)(F)F
111.2

Dear colleague, please send me the reported Percent Effect for CCc1nc(N)nc(NCCC(=O)NC2CCCCC2)c1C when you can.
10.22

Let me know recorded Percent Effect for Cc1cc(N2CCC(NS(C)(=O)=O)CC2)nc(C(C)C)n1 , thanks.
66.62

Please report the measured Percent Effect for COc1ccc2c(c1)CCCN2C(=O)NCCc1cnn(C)c1
-4.065

Identify Percent Effect associated with the molecule CC(C)c1cc(N2CCC(NS(C)(=O)=O)CC2)n2nccc2n1
-0.6269

---

# System: Wolbachia pipientis
# method: Anti-Wolbachia Cell-Based Screen
# Assay type: functional
# Set-up: scale not given: in the data most compounds retested in dose-response had high values
# measurementConditions: 5 µM
Out of some 48,000 compounds screened, about 13,000 (27%) showed an effect of 50% or more. The list shows a part of the results.
readoutLabel: Percent Effect (%)
Form entry: value (%) — number only.

Field: example entries. Status: answers known.
# compound, targetSystem, Percent Effect / %
records = [
    ("CCOc1ccc(CNCc2cccnc2N(C)C)cc1", "Wolbachia pipientis", 80.05),
    ("Cc1nc(CN2CCCC(CCNS(C)(=O)=O)C2)c[nH]1 (stereo not drawn)", "Wolbachia pipientis", -5.765),
    ("C[C@]1(O)CN(CCO)CC[C@@H]1Oc1cccc(F)c1", "Wolbachia pipientis", 120.3),
]

Would you please give the reported Percent Effect of CC(C)COC(C)C(=O)N1CCCCC1 (stereo not drawn) with Wolbachia pipientis?
22.01

State recorded Percent Effect with Wolbachia pipientis, entry COc1c(C2CCCN2C(=O)Cc2c(C)noc2C)c(C)nn1C (stereo not drawn) , no comment.
-5.371

Give Percent Effect for COc1ccccc1N1CCC(CNCc2cccc(OC)c2OC)C1 (stereo not drawn) tested on Wolbachia pipientis.
0.729

Consider the compound COc1ccccc1S(=O)(=O)N1CCC2(CC1)[C@H](O)C[C@@H]2O tested on Wolbachia pipientis; state its Percent Effect.
-0.7897

// fetch Percent Effect for Cc1ncsc1C(=O)NCCOc1ncc(Cl)cc1Cl ; system: Wolbachia pipientis
21.09

Give measured Percent Effect for CCn1ccnc1CN(C)C(C(=O)O)c1ccc(C(C)(C)C#N)cc1 (stereo not drawn) (Wolbachia pipientis).
-18.43

Output reported Percent Effect of the compound O=C(COc1cccc(F)c1)N1C[C@H](CO)C[C@H](CN2CCCC2)C1 on Wolbachia pipientis.
-0.9347

---

# Test system: Wolbachia pipientis
# method: Anti-Wolbachia Cell-Based Screen
# Assay type: functional
# Design: scale not given: in the data most compounds retested in dose-response had high values
# measurementConditions: 5 µM
The whole screen tested about 48,000 compounds, of which about 13,000 (27%) showed an effect of 50% or more. The list shows a part of the results.
readoutLabel: Percent Effect (%)
Please respond with the number in % and leave the unit unwritten.

These recorded examples may help you get a feel for the data.
# compound, readoutLabel, assayValue
rows = [
    ("N#Cc1ccnc(N2CCN(CC(O)c3cc(F)ccc3F)CC2)c1 (stereo unspecified)", "Percent Effect", -0.2819),
    ("O=C(Nc1ccccc1)[C@H]1O[C@H](CCN2CCNCC2)CC[C@@H]1O", "Percent Effect", 1.571),
    ("COc1ccccc1CN(Cc1cccc(C)c1)C(=O)[C@@H](N)CC(=O)O", "Percent Effect", 3.134),
]

Give a short answer stating reported Percent Effect for CN1CCN(Cc2cccnc2)C2(CCN(c3ncccn3)C2)C1=O.O=C(O)C(F)(F)F.O=C(O)C(F)(F)F (stereo unspecified) .
-6.592

Complete the entry with Percent Effect for O=C1N(Cc2cccc(F)c2)CCC12CCCN(c1ncc(F)cn1)C2 (stereo unspecified)
102

Supply Percent Effect value. Item: CC(C)CC(C#N)NC(=O)c1ccc(Oc2cccnc2)cc1 (stereo unspecified)
0.407

---

Recorded Percent Effect for the following compounds
# Test system: Wolbachia pipientis
# method: Anti-Wolbachia Cell-Based Screen
# Format: functional
# Design: scale not given: in the data most compounds retested in dose-response had high values
# measurementConditions: 5 µM
Screen size: about 48,000 compounds; about 13,000 (27%) showed an effect of 50% or more. The list shows a part of the results.
The reply should be a number in %, with the unit left off.

Retrieve Percent Effect measured for Cc1cc(N2CCCC(c3nccnc3N(C)C)C2)ncn1 (configuration not stated) and print it.
90.88

---

# Tested on: Wolbachia pipientis
# method: Anti-Wolbachia Cell-Based Screen
# Type: functional
# Parameters: scale not given: in the data most compounds retested in dose-response had high values
# measurementConditions: 5 µM
The whole screen tested about 48,000 compounds, of which about 13,000 (27%) showed an effect of 50% or more. The list shows a part of the results.
Listed below: Percent Effect values for each entry.

# compound, Percent Effect
measured = [
    ("Cc1ccc(N2CCCC(NCCCS(C)(=O)=O)C2)nn1 (stereo unspecified)", "0.9171%"),
    ("CC(C)=CCNC1CCCN(c2ccc(C)nn2)C1 (stereo unspecified)", "-19.9%"),
    ("Cc1cccc(-c2noc([C@@H]3C[C@@H](O)CN3Cc3ccc(CO)o3)n2)c1", "5.801%"),
    ("Cc1ccc(N2CCCC(NCC(=O)NC(C3CC3)C3CC3)C2)nn1 (stereo unspecified)", "84.95%"),
    ("Cc1ccc(N2CCCC(NCC(=O)NCC3CC3)C2)nn1 (stereo unspecified)", "1.938%"),
]

Given CN(Cc1cc(Cl)c2c(c1)OCO2)Cc1cscn1 , report its Percent Effect on Wolbachia pipientis.
1.61%

---

# System: Wolbachia pipientis
# method: Anti-Wolbachia Cell-Based Screen
# Type: functional
# Design: scale not given: in the data most compounds retested in dose-response had high values
# measurementConditions: 5 µM
Among all 48,000 compounds or so, about 13,000 (27%) showed an effect of 50% or more. The list shows a part of the results.
readoutLabel: Percent Effect (%)
Output spec: scalar in %, unitless text.

# compound, targetSystem, readoutLabel, assayValue
measured = [
    ("O=C(c1ccco1)N1CCOCC2(C1)CN(c1ccccn1)C(=O)CO2 (stereo unspecified)", "Wolbachia pipientis", "Percent Effect", 92.62),
]

Find the measured Percent Effect of O=C(c1ccco1)N1CCOCC2(C1)CN(c1ccoc1)C(=O)CO2 (stereo unspecified) and report it.
100.8

// fetch Percent Effect given entry Cc1ccc(S(=O)(=O)Cc2noc([C@@H]3C[C@@H](O)CN3C)n2)cc1
-3.09

# return recorded Percent Effect for input CC(C)NC(=O)NCC(Cc1ccc(F)cc1)C(N)=O (stereo unspecified)
96.65

Report Percent Effect, nothing else, for this compound: CC(C)S(=O)(=O)CC(=O)NCC(Cc1ccc(F)cc1)C(N)=O (stereo unspecified)
124.5

Quick one: give measured Percent Effect for CCOc1ccc(CC(CNC(=O)c2ccc(C)o2)C(N)=O)cc1 (stereo unspecified)
-14.58

---

# System: Wolbachia pipientis
# method: Anti-Wolbachia Cell-Based Screen
# Type: functional
# Set-up: scale not given: in the data most compounds retested in dose-response had high values
# measurementConditions: 5 µM
Among all 48,000 compounds or so, about 13,000 (27%) showed an effect of 50% or more. Some of the results follow.
readoutLabel: Percent Effect (%)
State just the number; it will be interpreted in %.

Below, 3 compounds whose answers are already recorded.
# compound, targetSystem, scaleUnit, Percent Effect
rows = [
    ("CCc1ccc(CN2CCC(CNC(=O)c3ccc(C)nc3)C2)nc1 (stereo unspecified)", "Wolbachia pipientis", "%", 20.32),
    ("O=C(CCn1cncn1)N1C[C@H]2CC[C@@H]1CN(Cc1cccnc1)C2", "Wolbachia pipientis", "%", 2.407),
    ("Cc1ccc(CN(C)Cc2nc3c(cnn3C)c(=O)[nH]2)o1", "Wolbachia pipientis", "%", 10.6),
]

Note down Percent Effect recorded for Cn1cnc2c1CCN(CCOc1ccc3c(c1)CCC(=O)N3)C2
-6.768

Give the measured Percent Effect for CC(C)CC(O)C1CCN(C(=O)c2ccc(C(F)(F)F)nc2O)CC1 (stereo unspecified)
-33.24

Please give the documented Percent Effect of CCNC(=O)C1CCN(Cc2ccc(C(=O)Nc3cnns3)cc2)C1 (stereo unspecified)
106

Reference source: ChEMBL document CHEMBL3988442
